target: HDAC6 (Homo sapiens (Human), UniProt Q9UBN7)
Sequence (Q9UBN7 whole entry): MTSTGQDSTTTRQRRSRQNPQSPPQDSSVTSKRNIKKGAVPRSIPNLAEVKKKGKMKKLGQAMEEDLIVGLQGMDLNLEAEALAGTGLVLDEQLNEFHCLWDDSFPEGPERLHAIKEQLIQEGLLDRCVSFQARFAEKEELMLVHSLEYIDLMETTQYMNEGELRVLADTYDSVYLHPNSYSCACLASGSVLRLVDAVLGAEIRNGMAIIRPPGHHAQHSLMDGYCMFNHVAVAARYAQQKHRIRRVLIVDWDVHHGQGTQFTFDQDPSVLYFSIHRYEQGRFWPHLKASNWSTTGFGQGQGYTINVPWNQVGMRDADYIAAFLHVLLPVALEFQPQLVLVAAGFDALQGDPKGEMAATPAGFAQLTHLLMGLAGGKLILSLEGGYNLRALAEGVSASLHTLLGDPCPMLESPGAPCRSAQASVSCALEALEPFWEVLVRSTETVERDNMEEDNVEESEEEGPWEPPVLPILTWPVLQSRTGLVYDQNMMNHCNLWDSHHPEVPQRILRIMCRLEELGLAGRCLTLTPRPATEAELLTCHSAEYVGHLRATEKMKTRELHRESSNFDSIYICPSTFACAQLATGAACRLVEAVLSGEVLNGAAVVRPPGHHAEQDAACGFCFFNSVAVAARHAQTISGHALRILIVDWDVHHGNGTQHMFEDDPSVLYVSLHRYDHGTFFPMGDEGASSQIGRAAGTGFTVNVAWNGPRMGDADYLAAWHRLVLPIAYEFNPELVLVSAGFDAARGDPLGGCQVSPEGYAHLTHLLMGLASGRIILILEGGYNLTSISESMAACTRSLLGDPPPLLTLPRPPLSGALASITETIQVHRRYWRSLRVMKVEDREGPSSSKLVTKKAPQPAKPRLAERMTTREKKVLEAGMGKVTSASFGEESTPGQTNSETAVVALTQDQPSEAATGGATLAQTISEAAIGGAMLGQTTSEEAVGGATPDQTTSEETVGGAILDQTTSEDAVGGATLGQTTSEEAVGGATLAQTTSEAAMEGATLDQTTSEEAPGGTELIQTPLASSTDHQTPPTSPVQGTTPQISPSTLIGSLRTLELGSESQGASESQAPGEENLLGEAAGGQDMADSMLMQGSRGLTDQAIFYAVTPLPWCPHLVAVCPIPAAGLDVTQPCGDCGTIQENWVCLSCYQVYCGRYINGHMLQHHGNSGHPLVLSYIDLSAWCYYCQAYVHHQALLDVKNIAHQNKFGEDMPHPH
IC50 under 6 nM gets condition met, anything at or over 6 nM gets condition not met.

Input COc1cc(Cn2cc3ccc(C(=O)NO)cc3n2)cc(OC)c1 [Compound 72] ; condition: IC50 strictly below 6 nM. Does it hold?
condition met

Likewise for O=C(NO)c1cc2nn(Cc3cccc(Cl)c3)cc2cc1F [Compound 89] ?
condition not met

Likewise for O=C(NO)c1ccc2cn(Cc3ccc(C(F)(F)F)cc3)nc2c1 [Compound 69] ?
condition met

Likewise for O=C(NO)c1ccc2cn(Cc3cc(F)cc(F)c3)nc2c1 [Compound 61] ?
condition met

Likewise for O=C(NO)c1cc2nn(Cc3ccccc3)cc2cc1F [Compound 88] ?
condition not met

Please examine the following record next.
Input CC(C)c1ccc(Cn2cc3ccc(C(=O)NO)cc3n2)cc1 [Compound 64] ; condition: IC50 strictly below 6 nM. Does it hold?
condition not met

* * *

Would you mind telling me the reported MS (in mouse) of each entry?
assay: MS (in mouse); assay type: in vitro ADME; design: unit not given here
Give bare numbers.

Observe how each entry below is paired with its result.
# MS (in mouse) lookup, item O=C(NO)c1ccc2cn(Cc3ccc(F)cc3)nc2c1
71.3

Likewise for COc1ccc(Cn2cc3ccc(C(=O)NO)cc3n2)cc1 ?
98.6

Likewise for O=C(NO)c1ccc2cn(Cc3ccc(Cl)cc3)nc2c1 ?
40.8

More entries:
# MS (in mouse) lookup, item O=C(NO)c1ccc2cn(Cc3ccccc3)nc2c1
79.3

* * *

Would you mind telling me the reported MS (in human) of each entry?
test: MS (in human); format: in vitro ADME; parameters: unit not given here
One number for each entry.

Observe how each entry below is paired with its result.
# MS (in human) lookup, item O=C(NO)c1ccc2cn(Cc3ccc(F)cc3)nc2c1 [Compound 53]
85.9

Likewise for O=C(NO)c1ccc2cn(Cc3ccc(Cl)cc3)nc2c1 [Compound 54] ?
49.3

Likewise for O=C(NO)c1ccc2cn(Cc3ccccc3)nc2c1 [Compound 50] ?
97.6

Turning to the following compound.
# MS (in human) lookup, item COc1ccc(Cn2cc3ccc(C(=O)NO)cc3n2)cc1 [Compound 51]
76.7

* * *

target: HDAC8 (Homo sapiens (Human))
Sequence (Q9BY41 whole entry, species assumed): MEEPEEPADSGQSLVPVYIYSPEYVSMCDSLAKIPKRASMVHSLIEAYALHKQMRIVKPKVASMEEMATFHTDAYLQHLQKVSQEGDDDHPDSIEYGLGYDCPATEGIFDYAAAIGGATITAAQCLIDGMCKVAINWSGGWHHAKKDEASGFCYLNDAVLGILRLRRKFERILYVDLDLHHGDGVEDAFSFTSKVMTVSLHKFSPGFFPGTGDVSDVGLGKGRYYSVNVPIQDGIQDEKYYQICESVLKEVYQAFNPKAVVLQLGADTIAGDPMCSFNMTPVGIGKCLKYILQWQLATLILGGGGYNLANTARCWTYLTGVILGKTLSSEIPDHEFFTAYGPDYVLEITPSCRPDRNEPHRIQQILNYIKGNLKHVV
parameter-measured: pIC50
Give bare numbers, as −log10 of the molar value.

Observe how each entry below is paired with its result.
# pIC50 lookup, item O=C(NO)c1ccc2cn(Cc3cccc(F)c3)nc2c1
5.95

Likewise for CC(C)c1ccc(Cn2cc3ccc(C(=O)NO)cc3n2)cc1 ?
5.54

Likewise for O=C(NO)c1ccc2cn(Cc3cccc(OC(F)(F)F)c3)nc2c1 ?
5.99

Likewise for Cc1ccc(Cn2cc3ccc(C(=O)NO)cc3n2)cc1 ?
6.16

Likewise for O=C(NO)c1ccc2cn(Cc3ccc(OC(F)(F)F)cc3)nc2c1 ?
5.97

Batch lookup, pIC50 per entry.
1. O=C(NO)c1ccc2cn(Cc3ccc4ccccc4c3)nc2c1
2. O=C(NO)c1ccc2cn(Cc3cccc(OCc4ccccc4)c3)nc2c1
3. O=C(NO)c1ccc2cn(Cc3ccc(Br)cc3)nc2c1
4. COc1cccc(Cn2cc3ccc(C(=O)NO)cc3n2)c1
5. O=C(NO)c1ccc2cn(Cc3ccc(OC(F)F)cc3)nc2c1
6. COc1ccc(Cn2cc3ccc(C(=O)NO)cc3n2)cc1
7. O=C(NO)c1ccc2cn(Cc3cccc(Oc4ccccc4)c3)nc2c1

1. 6.06
2. 5.67
3. 6.23
4. 6.01
5. 6.30
6. 6.12
7. 5.70

Batch lookup, pIC50 per entry.
1. O=C(NO)c1ccc2cn(Cc3ccc(F)cc3)nc2c1
2. O=C(NO)c1ccc2cn(Cc3cccc(C(F)(F)F)c3)nc2c1
3. O=C(NO)c1ccc2cn(CCc3ccccc3)nc2c1
4. O=C(NO)c1cc2nn(Cc3ccccc3)cc2cc1F

1. 6.03
2. 6.13
3. 5.93
4. 5.42

* * *

Recorded below: pIC50, system HDAC6 (Homo sapiens (Human)).
One number for each entry, as −log10 of the molar value.

Batch lookup, pIC50 per entry.
1. O=C(NO)c1ccc2cn(Cc3ccc(F)cc3)nc2c1
2. O=C(NO)c1ccc2cn(Cc3cccc(Oc4ccccc4)c3)nc2c1
3. O=C(NO)c1ccc2cn(CCc3ccccc3)nc2c1
4. O=C(NO)c1ccc2cn(Cc3ccc(Br)cc3)nc2c1
5. O=C(NO)c1ccc2cn(Cc3cccc(Cl)c3)nc2c1

8.23
7.64
8.40
8.47
8.89
